B1: MLL5 (parent)
chain: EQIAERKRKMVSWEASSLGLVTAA

# Variants of: B1
# TEST: protein stability index of a GFP-peptide fusion (GPS, HEK-293T) (PSI 1-6); higher = more stable;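 further: lentivirally expressed fusions sorted by FACS into six bins by GFP to DsRed ratio, PSI derived from sequencing read proportions per bin multiplied by bin number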
# RUN_CONDITIONS: c terminus: a fixed tail appended
METRIC_NAME: protein stability index

>>> df
                    sequence  value_reported
 0  EQIAENKRKMVSWEASSLGLVTAA               3
 1  EQIAERKRKNVSWEASSLGLVTAA             3.5
 2  GQIAERKRKMVSWEASSLGLVTAA            3.27
 3  EQIAERKRKMVSWEASSLGLVSAA            2.92
 4  EQIAERKRKMVSWEASSLGLVTPA            3.41
 5  EQIAERKRKMVSWEASSLGLQTAA            3.22
 6  EQIAERKRKMVSWEASSLGLVTEA            3.96
 7  EQIAERKRKEVSWEASSLGLVTAA            4.23
 8  EQIAERKKKMVSWEASSLGLVTAA            3.56
 9  EQIPERKRKMVSWEASSLGLVTAA            3.85
10  EQEAERKRKMVSWEASSLGLVTAA            2.29
11  FQIAERKRKMVSWEASSLGLVTAA            1.42
12  EQIAERKRKMVSWEASSLGLHTAA            2.82
13  EQIAERKRKMVSWEASSLGLITAA            3.15
14  EQIAERKRKMVSWEASSLGHVTAA            3.54
15  EQIAERKRKMVSWEADSLGLVTAA            2.86
16  EQIAERKRKMVSWEASSLGEVTAA             4.3
17  EQIAERKRKMVSWEASSVGLVTAA            2.53
18  EQIAIRKRKMVSWEASSLGLVTAA            2.33
19  EQIAERKRKYVSWEASSLGLVTAA            2.89
20  EQIAERKRKMVSWPASSLGLVTAA            2.44
21  EQIAKRKRKMVSWEASSLGLVTAA            3.08
